# assay_procedure: Rotating disk electrode linear sweep voltammetry (Levich and Tafel analysis)
# Format: physicochemical
# experimental_context: LSV data at 2700 rpm, Tafel plot
# From the text: Further, the log (i0) can also be represented as FACOk0, where k0 is the electron transfer rate constant.
quantity: electron transfer rate constant k0 (cm/s)
One number for each entry, in cm/s.

Query: Give reported electron transfer rate constant k0 value for `O=C1/C(=C2\Nc3ccc(S(=O)(=O)O)cc3C2=O)Nc2ccc(S(=O)(=O)O)cc21`
Reply: 0.000282
